system: LXFL 529; assay: NCI tumour cell line growth inhibition, 48 h
Active and inactive are the calls of the source. Cut-off read from the data, not from the text of the source: active = GI50 up to about 1.1 µM and inactive = higher.
GI50 values for the molecules below.

Here is how some molecules turned out for GI50.
molecule	result
S=C1OC2CCCC[C@H]2O1 (stereo partly specified)	> 100 µM (inactive)
Cc1ccc(S(=O)(=O)n2c(-c3ccccc3)c(-c3ccccc3)c3ccccc32)cc1	> 100 µM (inactive)
N#Cc1nc(Nc2cccc3ccccc23)sc1N	29.9 µM (inactive)
COc1cc2c(cc1O)[C@H](C)C(c1ccccc1OC)O2 (stereo partly specified)	8 µM (inactive)
COc1cccc2ccc3c(c12)C(=O)OC31CCc2c(C)cccc21 (stereo unspecified)	15 µM (inactive)

Form entry - test system: LXFL 529; read-out: GI50; molecule: O=c1/c(=C/c2c(O)ccc3ccccc23)sc2nc3ccccc3n12
> 100 µM (inactive)

---

test system: SF-539; assay: NCI tumour cell line growth inhibition, 48 h
The source made the active and inactive calls. Cut-off read from the data, not from the text of the source: active = GI50 up to about 1.1 µM and inactive = higher.
endpoint_label: GI50

Known results for compounds:
compound	result
CN(C)Cc1cc(/N=N/c2ccc(Cl)cc2)ccc1O	18.1 µM (inactive)
O=[N+]([O-])C1=Cc2c(O)ccc(O)c2C2c3ccccc3NC12 (stereo not drawn)	30.9 µM (inactive)
COc1cccc2ccc3c(c12)C(=O)OC31CCc2c(C)cccc21 (stereo not drawn)	31.3 µM (inactive)

GI50 for Cc1c(Cc2ccccc2)c(Cc2ccccc2)c(C)[s+]1[O-] ?
45.2 µM (inactive)

GI50 lookup needed for Cc1cc(S(=O)(=O)Nc2nc(N)n(-c3cnc4ccccc4n3)n2)c(S)cc1Cl , thanks.
> 100 µM (inactive)

Fill in: GI50 of CCOC(=O)C/C(N)=C(\C#N)C(=O)OCC is ___
> 100 µM (inactive)

What value of GI50 has been reported for the following compound? COc1cc2c(Cc3cc(OCc4ccccc4)ccc3N)nccc2c(OC)c1OC
> 10 µM (inactive)

Item under review: O=C(O)c1cccc(/N=N/c2c(S(=O)(=O)O)ccc3c2C(=O)c2ccccc2C3=O)c1O . Reported GI50?
> 100 µM (inactive)

---

system: NCI-H460; assay: NCI tumour cell line growth inhibition, 48 h
Activity calls are given as the source filed them. Rule as the data show it: active = GI50 up to about 1.1 µM and inactive = higher.
The following compounds are listed with their measured GI50 values.

Please review the entries below; each comes with its answer.
NNC(=O)c1ccccc1NC(=O)/C(=C/c1ccccc1)NC(=O)c1ccccc1 80 µM (inactive)
O=C(CCc1n[nH]c(=S)o1)Nc1cc(Cl)c(Cl)cc1Cl 46.6 µM (inactive)
CCCCCCCCCCCCCCCCOP(=O)(O)Oc1ccc(/C=C\c2ccc(OP(=O)(O)OCCCCCCCCCCCCCCCC)cc2)cc1 56.4 µM (inactive)
CN(C)Cc1cc(/C=C/C(=O)c2ccc(Br)cc2)cc(CN(C)C)c1O 19.3 µM (inactive)

Alright, here's another compound for you.
Entry C(=C\c1cc(CCc2nc3ccccc3[nH]2)n[nH]1)/c1ccccc1 has what GI50?
> 100 µM (inactive)

---

We begin with a simple list: items and their reported GI50.
tested on: SNB-19; assay: NCI tumour cell line growth inhibition, 48 h
Activity calls are given as the source filed them. No stated cut-off is given here; in the data, active = GI50 up to about 1.1 µM and inactive = higher.

A selection of reference data follows.
molecule	GI50
Cc1ccc(/C=N/Nc2nncc3ccccc23)s1	> 100 µM (inactive)
COC1CCCc2c(OC(C)=O)ccc(OC(C)=O)c21 (stereo unspecified)	> 100 µM (inactive)
CCOc1ccccc1NC(=O)CC(C(=O)OC)C(=O)C(=O)OC (stereo unspecified)	> 100 µM (inactive)

I am curious: what GI50 value has been reported for COc1ccc(/C=c2\s/c(=C3/SC(=S)N(c4ccccc4)C3=O)n(-c3ccccc3)c2=O)cc1 ?
35.4 µM (inactive)

---

system: SK-OV-3; experiment: NCI tumour cell line growth inhibition, 48 h
The source made the active and inactive calls. Rule as the data show it: active = GI50 up to about 1.1 µM and inactive = higher.
Listed compounds paired with reported GI50

Please review the following examples before continuing.
compound	GI50
COC(=O)[C@@H]1[C@H](O)CC[C@H]2[C@@]1(C)CC[C@@H](C)[C@]2(COC(C)=O)CC(=O)c1ccoc1	> 50 µM (inactive)
S=C1CSc2c(cnc3ccccc23)N1	> 100 µM (inactive)

Now consider the entry below.
Can you look up the measured GI50 of CCCCCCCCC/C=C1/CC(CO)(COC(=O)c2ccccc2)OC1=O (stereo not given) for me?
18.6 µM (inactive)

---

system: SK-OV-3; assay: NCI tumour cell line growth inhibition, 48 h
Activity calls are given as the source filed them. Rule as the data show it: active = GI50 up to about 1.1 µM and inactive = higher.
endpoint_label: GI50

Would you please look over these solved cases?
compound	GI50
Cc1ccc(/C=C2\CCCC(CN3CCCCC3)C2=O)cc1 (stereo not given)	16.5 µM (inactive)
CCN(CC)CCOc1ccc(/C=C(\C#N)c2ccc(OCCN(CC)CC)cc2)cc1	28.2 µM (inactive)
Cc1nc2c(o1)/C(=N\c1ccccc1)c1nc(C)oc1/C2=N/c1ccccc1	20.2 µM (inactive)
COc1ccc(N2C(=O)c3cc([N+](=O)[O-])cnc3S2(=O)=O)cc1	> 100 µM (inactive)
CCN1/C(=C/c2ccc3ccccc3[n+]2CC)C=Cc2ccccc21	2.18 µM (inactive)

// query GI50 value for entry CC(=O)O[C@H]1CCC2[C@@H]3CCC4=C(O)c5nocc5C[C@]4(C)C3CC[C@@]21C (stereo not given in full)
> 100 µM (inactive)

Please look up its GI50: C[C@@H]1C[C@](O)([C@@H](C)Cl)C(=O)O[C@@H]2CCN3CC=C(COC(=O)[C@]1(C)O)[C@H]23
> 100 µM (inactive)

Please report the recorded GI50 for COc1ccc(/C=C/NC=O)cc1 .
> 100 µM (inactive)

Entry CS(=O)(=O)OCCCCOS(=O)(=O)CF : reported GI50 = ?
> 100 µM (inactive)

If you can, please state the reported GI50 value of Cc1ccc(S(=O)(=O)N2CCN3C(=O)c4ccccc4C32c2ccc(F)cc2)cc1 (stereo not given) .
> 100 µM (inactive)

---

test system: DMS-273; test: NCI tumour cell line growth inhibition, 48 h
Active and inactive are the calls of the source. Cut-off read from the data, not from the text of the source: active = GI50 up to about 1.1 µM and inactive = higher.
Permitted responses: active, inactive

Solved cases below.
compound	classification
CCOC(=O)C/C(N)=C(\C#N)C(=O)OCC	inactive
CS(=O)(=O)N(CCC#N)c1ccc(/C=N/NC(=O)CC(=O)Nc2cccc(Cl)c2)cc1	inactive
Cc1ccc2ccc(-c3ccccc3)c3c2c1C(=O)c1ccccc1C3=O	inactive

Call for entry COc1ccc(N2C(=O)C3c4[nH]c5ccccc5c4C4CCCCC4C3C2=O)cc1 (centres undefined) :
inactive

What did this assay record as the result for CC(C)CC(NC(=O)OC(C)(C)C)C(=O)Nc1ccc(Nc2nc(F)nc(-c3c4ccccc4c4n3CCS4)n2)cc1 (centres undefined) ?
inactive

Please state the recorded outcome for this compound: CCN(CC)c1ccc2cc(C(=O)Nc3ccc4[nH]c(C(=O)N5C[C@@H](CCl)c6c5cc(OC(=O)Nc5ccccc5)c5[nH]cc(C)c65)cc4c3)oc2c1 [CARZELESIN]
active

Short answer needed: outcome of this test for CN(C)CN(C)c1nc(N(C)C)nc(N(C)C)n1 ?
inactive

Hi, do you know how N#CC(c1ccccc1)c1nc2ccc(N)cc2[n+]([O-])c1C(C#N)c1ccccc1 (centres undefined) came out in this test?
inactive

I would be grateful if you could indicate the recorded call for COc1ccc(/N=C(/[N-]n2c(=O)c(C)nn(C)c2=S)N(c2ccc(OC)cc2)c2n[n+]3c(=O)c(C)nn(C)c3s2)cc1 .
inactive

---

tested on: UACC-257; assay: NCI tumour cell line growth inhibition, 48 h
Active and inactive are the calls of the source. Cut-off read from the data, not from the text of the source: active = GI50 up to about 1.1 µM and inactive = higher.
endpoint_label: GI50

For the molecule shown here, CC(=O)ON(C(C)=O)C1C(COC(c2ccccc2)(c2ccccc2)c2ccccc2)OC2OC3(CCCC3)OC21 (stereo not given) , give the reported GI50.
11.6 µM (inactive)

What does the data say about its GI50? Entry: CC1=NN(c2nc(N)nc(CSc3cc(Cl)c(C)cc3S(N)(=O)=O)n2)C(C)(C)C1
> 10 µM (inactive)

Which GI50 is listed for O=C(O)Cc1cccc2c(=O)c3cccc([N+](=O)[O-])c3oc12 ?
> 100 µM (inactive)

Can you look up the measured GI50 of Nc1n2nc(-c3ccccc3)sc2n[n+]1CC(=O)c1ccccc1 for me?
26.1 µM (inactive)

# get_value(readout='GI50', item= COc1ccc(OC)c2c(C(=O)O)c(Cc3ccccc3)ccc12 )
> 100 µM (inactive)

---

tested on: COLO 205; test: NCI tumour cell line growth inhibition, 48 h
Calls of active or inactive are those of the source. Rule as the data show it: active = GI50 up to about 1.1 µM and inactive = higher.
// allowed return values: class 1 = active, class 0 = inactive

Answered examples (5):
compound	target_desc	classification
O=S(=O)(/C=C/C=C/S(=O)(=O)c1ccccc1)c1ccccc1	COLO 205	class 0
O=C(O)CCCc1ccc(N(CCCl)CCCl)cc1 [CHLORAMBUCIL]	COLO 205	class 0
CCN(CC)CCNc1c(OC)cc(C)c2sc3ccccc3c(=O)c12	COLO 205	class 0
O=C(O)c1cccc(/N=N/c2c(S(=O)(=O)O)ccc3c2C(=O)c2ccccc2C3=O)c1O	COLO 205	class 0
COc1cc2ccc(=O)oc2cc1O [SCOPOLETIN]	COLO 205	class 0

Would you mind telling me which call this test gave COc1ccc(N2C(=O)c3cc([N+](=O)[O-])cnc3S2(=O)=O)cc1 ?
class 0

How was O=C1NCCCc2nonc21 classified in this test?
class 0

Test call, this compound: CC(=O)OCC12CC(CC1OC(C)=O)c1ccccc12 (centres undefined)
class 0

Test call for this compound, please: CCN(CC)CCOc1ccc(/C=C(\C#N)c2ccc(OCCN(CC)CC)cc2)cc1
class 0

What did the test return for CCCCCC(=O)NC(=S)Nc1nnn[nH]1 ?
class 0

What did this assay record as the result for O=S(=O)(c1ccccc1)c1ccc(-c2nc(-c3ccc4c(c3)Sc3ccccc3S4)cs2)cc1 ?
class 0

Field: outcome | Entry: COc1cc2c(cc1OC)C(=O)/C(=C/c1ccc(Cl)cc1)CC2
class 0

Fill in: this test's call for O=c1[nH]cc(-c2c[nH]c3ccccc23)nc1-c1c[nH]c2ccccc12 is ___
class 0
